test system: T. cruzi-infected H9C2 cardiomyocytes, high-content imaging; experiment: intracellular T. cruzi amastigote inhibition, imaging, H9C2 host cardiomyocytes, host toxicity (AID 1159565); settings: measured here: H9C2 host cell toxicity;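 note: infected cells incubated 72 h after plating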
pIC50: −log10 of the molar value.

[
  {
    "Compound": "COc1ccc(NS(=O)(=O)c2cccc(NC(=O)c3cc(F)cc(F)c3)c2)cc1",
    "System": "T. cruzi-infected H9C2 cardiomyocytes, high-content imaging",
    "pIC50": "< 4.30"
  },
  {
    "Compound": "Cc1cc(=O)n2nc(Oc3ccc(C#N)cc3Cl)sc2n1",
    "System": "T. cruzi-infected H9C2 cardiomyocytes, high-content imaging",
    "pIC50": 4.49
  },
  {
    "Compound": "COc1cc(C2SCC(=O)Nc3c2c(C)nn3-c2nc3ccccc3s2)cc(OC)c1O (stereo unspecified)",
    "System": "T. cruzi-infected H9C2 cardiomyocytes, high-content imaging",
    "pIC50": "< 4.30"
  },
  {
    "Compound": "COc1cccc(C(=O)[C@H]2C[C@@H]2CN(Cc2cccnc2)Cc2cccnc2)c1",
    "System": "T. cruzi-infected H9C2 cardiomyocytes, high-content imaging",
    "pIC50": "< 4.30"
  },
  {
    "Compound": "Cc1cc(N(C)C)nc(Nc2ccccc2C)n1",
    "System": "T. cruzi-infected H9C2 cardiomyocytes, high-content imaging",
    "pIC50": "< 4.30"
  },
  {
    "Compound": "CS(=O)(=O)c1cccc(CNC(=O)c2cncc(N3CCN(c4ccc(F)cc4)CC3)c2)c1",
    "System": "T. cruzi-infected H9C2 cardiomyocytes, high-content imaging",
    "pIC50": "< 4.30"
  },
  {
    "Compound": "NS(=O)(=O)c1ccc(CNC(=O)c2ccc([N+](=O)[O-])s2)cc1",
    "System": "T. cruzi-infected H9C2 cardiomyocytes, high-content imaging",
    "pIC50": 4.70
  },
  {
    "Compound": "COCc1cnc2c(c1SCc1c(F)cccc1Cl)c(=O)n(C)c(=O)n2C",
    "System": "T. cruzi-infected H9C2 cardiomyocytes, high-content imaging",
    "pIC50": "< 4.30"
  },
  {
    "Compound": "O=C(NCC1CCCCN1C(=O)c1cccc2ccccc12)c1ccccc1 (stereo unspecified)",
    "System": "T. cruzi-infected H9C2 cardiomyocytes, high-content imaging",
    "pIC50": "< 4.30"
  },
  {
    "Compound": "COc1ccc2ncc(F)c(NC(=O)C3(O)CCC(NCc4ccc5c(c4)OCCO5)CC3)c2n1 (stereo unspecified)",
    "System": "T. cruzi-infected H9C2 cardiomyocytes, high-content imaging",
    "pIC50": 4.49
  },
  {
    "Compound": "Clc1ccc(Sc2cnccc2N2CCOCC2)cc1",
    "System": "T. cruzi-infected H9C2 cardiomyocytes, high-content imaging",
    "pIC50": "< 4.30"
  },
  {
    "Compound": "Cc1[nH]nc(Nc2ccnc3[nH]ccc23)c1C",
    "System": "T. cruzi-infected H9C2 cardiomyocytes, high-content imaging",
    "pIC50": "< 4.30"
  },
  {
    "Compound": "Cc1nc(N2CCC(C(=O)N3CCC(O)(c4cccnc4)CC3)CC2)nc2ccc(C(C)C)cc12",
    "System": "T. cruzi-infected H9C2 cardiomyocytes, high-content imaging",
    "pIC50": 4.40
  },
  {
    "Compound": "CN(C)CCOc1ccc(N2CCN(S(=O)(=O)c3ccc(Cl)cc3)CC2)cc1",
    "System": "T. cruzi-infected H9C2 cardiomyocytes, high-content imaging",
    "pIC50": "< 4.30"
  },
  {
    "Compound": "O=c1[nH]c(NCCCNCc2cc(Br)cc(Br)c2)nc2ccsc12",
    "System": "T. cruzi-infected H9C2 cardiomyocytes, high-content imaging",
    "pIC50": 4.60
  },
  {
    "Compound": "Cc1ccccc1CNC(=O)CN(Cc1ccccn1)Cc1ccccn1",
    "System": "T. cruzi-infected H9C2 cardiomyocytes, high-content imaging",
    "pIC50": "< 4.10"
  }
]

Numbers sourced from PubChem BioAssay AID1159565.
